Target: Glucose-6-phosphate 1-dehydrogenase (Homo sapiens, UniProt P11413)
Sequence (P11413 whole entry): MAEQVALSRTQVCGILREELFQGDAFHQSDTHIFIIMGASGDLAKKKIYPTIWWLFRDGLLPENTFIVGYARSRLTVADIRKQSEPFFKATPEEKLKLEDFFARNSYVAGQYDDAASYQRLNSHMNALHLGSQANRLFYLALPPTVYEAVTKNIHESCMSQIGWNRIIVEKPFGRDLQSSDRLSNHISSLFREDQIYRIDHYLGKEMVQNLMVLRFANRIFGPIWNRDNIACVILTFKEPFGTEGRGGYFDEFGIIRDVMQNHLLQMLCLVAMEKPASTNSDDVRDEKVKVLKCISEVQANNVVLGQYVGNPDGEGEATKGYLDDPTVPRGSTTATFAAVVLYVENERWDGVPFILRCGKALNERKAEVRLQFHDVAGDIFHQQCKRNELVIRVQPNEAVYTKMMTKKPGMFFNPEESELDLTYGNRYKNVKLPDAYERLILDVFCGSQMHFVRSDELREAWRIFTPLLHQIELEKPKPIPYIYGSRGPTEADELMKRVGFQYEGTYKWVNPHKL
Assay: human G6PD enzyme inhibitors, dose response, selectivity assay for P. falciparum G6PD inhibitor project, biochemical, fluorescence (AID 504792)
Type: functional
Calls of active or inactive are those of the source. No stated cut-off is given here; in the data, active = IC50 of 20 µM or less and inactive = more.
assay metric: IC50

Examples from the recorded data:
CCn1c(=O)n(CC)c2cc(N3CCCC3)c(NC(=O)c3cccc(C)c3)cc21 | > 80 µM (inactive)
COC1=CC(=O)C=C(OC)C1(O)CC(C)=O | 54.3 µM (inactive)
CCOc1ccccc1NC(=O)CCCc1nc(O)c2ccccc2n1 | 71.7 µM (inactive)
CN(C)c1nc(=NCc2cccs2)ss1 | > 80 µM (inactive)

Query `CCOc1ccc2ccccc2c1/C=N/NC(=O)c1ccncc1` yields IC50 of 27.1 µM (inactive)

Query CCNc1cc2c(cc1O)CCC1C2CCC2(C)C(O)CCC12 (stereo unspecified) yields IC50 of > 80 µM (inactive)
